Values were extracted from patent US4593090A.

- Assay explanation: Acute toxicity (LD50, Behrens-Karber method)
- Type: in vivo, ICR mice
- Measurement setup: mouse, in vivo, ip, mortality during 30 days
- Procedure: Test compounds, dissolved or suspended in 0.5% aqueous CMC, were each intraperitoneally administered to ICR mice in a dose of 0.1 ml per 10 g body weight. LD50 (mg/kg) value of each test compound was calculated from the mortality of mice during 30 days by the Behrens-Karber method.
Catalogue of molecules with associated LD50 at 720 h
Unit mg/kg implied. Number only.

LD50 at 720 h for CCCCO[C@@H]1O[C@H](CN(C)C(=O)N(CCCl)N=O)[C@@H](O)[C@H](O)[C@H]1O [Compound 4] ?
220

====

Catalogue of compounds with associated LD50 at 720 h
- Assay explanation: Acute toxicity (LD50, Behrens-Karber method)
- Assay type: in vivo, ICR mice
- Measurement setup: mouse, in vivo, ip, mortality during 30 days
Unit mg/kg implied. Number only.

Sample answers from the record:
Compound	Measured number
COCC(C)O[C@H]1O[C@H](CN(CC2CC2)C(=O)N(CCCl)N=O)[C@@H](O)[C@H](O)[C@H]1O (stereo partly shown) [Compound 34]	480
COc1cc(CO[C@H]2O[C@H](CN(CC(C)C)C(=O)N(CCCl)N=O)[C@@H](O)[C@H](O)[C@H]2O)cc(OC)c1OC [Compound 53]	350
CCC(C)OC1OC(CO)C(N(C(=O)N(CCCl)N=O)C(C)COC)C(O)C1O (stereo not shown) [Compound 96]	450
COCC(C)O[C@H]1O[C@H](CN(CC(C)C)C(=O)N(CCCl)N=O)[C@@H](O)[C@H](O)[C@H]1O (stereo partly shown) [Compound 33]	560

LD50 at 720 h for COC(C)CN(C(=O)N(CCCl)N=O)C1C(O)C(CO)OC(OC2CCCCC2)C1O (stereo not shown) [Compound 86] ?
695

Now the same for CC(C)CO[C@H]1O[C@H](CO)[C@@H](O)[C@H](O)[C@H]1N(Cc1ccccc1)C(=O)N(CCCl)N=O [Compound 62]
565

====

- Assay explanation: Acute toxicity (LD50, Behrens-Karber method)
- Assay type: in vivo, ICR mice
- Measurement setup: mouse, in vivo, ip, mortality during 30 days
Catalogue of compounds with associated LD50 at 720 h
Number first, unit second.

Sample answers from the record:
Compound	LD50 at 720 h
COCCCN(C(=O)N(CCCl)N=O)C1C(OCC(C)C)OC(CO)C(O)C1O (stereo not shown)	560 mg/kg
CCCO[C@H]1O[C@H](CN(CC(C)C)C(=O)N(CCCl)N=O)[C@@H](O)[C@H](O)[C@H]1O	340 mg/kg
COCCCO[C@H]1O[C@H](CN(C(=O)N(CCCl)N=O)C(C)(C)C)[C@@H](O)[C@H](O)[C@H]1O	560 mg/kg

LD50 at 720 h for COCCN(C[C@H]1O[C@H](OC(C)COC)[C@H](O)[C@@H](O)[C@@H]1O)C(=O)N(CCCl)N=O (stereo partly shown) ?
470 mg/kg
